measuredTarget: doubly-phosphorylated wild-type rat ERK2 oxidized with H2O2 (sulfenylated on C159) (rat, UniProt P63086 1-358)
Sequence (P63086 whole entry): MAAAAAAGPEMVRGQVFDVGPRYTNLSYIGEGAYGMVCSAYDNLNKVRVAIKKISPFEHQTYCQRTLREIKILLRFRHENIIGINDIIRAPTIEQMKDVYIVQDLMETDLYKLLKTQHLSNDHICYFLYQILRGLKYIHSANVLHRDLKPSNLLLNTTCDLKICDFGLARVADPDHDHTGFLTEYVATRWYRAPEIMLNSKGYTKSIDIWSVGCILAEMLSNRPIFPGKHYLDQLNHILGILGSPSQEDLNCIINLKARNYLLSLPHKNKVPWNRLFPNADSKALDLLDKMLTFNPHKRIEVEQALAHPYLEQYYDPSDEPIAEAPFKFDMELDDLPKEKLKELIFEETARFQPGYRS
methodNotes: SPR
quantityName: Kd (µM)
Give just the numeric value; µM need not be written.

Please look up its Kd: Ac-FQRKTLQRRNLKGLNLNL-NH2 [Lig-D peptide]
58
